molecular target: UniProt:Q5JUK3; test: Tl+ flux assay in HEK-293 cells stably expressing WT human SLACK; format: cell-based; conditions: CRC; IC50 for compounds of mode Inh (also cells printed Inactive)
Sequence (Q5JUK3 1-1235 isoform Q5JUK3-3): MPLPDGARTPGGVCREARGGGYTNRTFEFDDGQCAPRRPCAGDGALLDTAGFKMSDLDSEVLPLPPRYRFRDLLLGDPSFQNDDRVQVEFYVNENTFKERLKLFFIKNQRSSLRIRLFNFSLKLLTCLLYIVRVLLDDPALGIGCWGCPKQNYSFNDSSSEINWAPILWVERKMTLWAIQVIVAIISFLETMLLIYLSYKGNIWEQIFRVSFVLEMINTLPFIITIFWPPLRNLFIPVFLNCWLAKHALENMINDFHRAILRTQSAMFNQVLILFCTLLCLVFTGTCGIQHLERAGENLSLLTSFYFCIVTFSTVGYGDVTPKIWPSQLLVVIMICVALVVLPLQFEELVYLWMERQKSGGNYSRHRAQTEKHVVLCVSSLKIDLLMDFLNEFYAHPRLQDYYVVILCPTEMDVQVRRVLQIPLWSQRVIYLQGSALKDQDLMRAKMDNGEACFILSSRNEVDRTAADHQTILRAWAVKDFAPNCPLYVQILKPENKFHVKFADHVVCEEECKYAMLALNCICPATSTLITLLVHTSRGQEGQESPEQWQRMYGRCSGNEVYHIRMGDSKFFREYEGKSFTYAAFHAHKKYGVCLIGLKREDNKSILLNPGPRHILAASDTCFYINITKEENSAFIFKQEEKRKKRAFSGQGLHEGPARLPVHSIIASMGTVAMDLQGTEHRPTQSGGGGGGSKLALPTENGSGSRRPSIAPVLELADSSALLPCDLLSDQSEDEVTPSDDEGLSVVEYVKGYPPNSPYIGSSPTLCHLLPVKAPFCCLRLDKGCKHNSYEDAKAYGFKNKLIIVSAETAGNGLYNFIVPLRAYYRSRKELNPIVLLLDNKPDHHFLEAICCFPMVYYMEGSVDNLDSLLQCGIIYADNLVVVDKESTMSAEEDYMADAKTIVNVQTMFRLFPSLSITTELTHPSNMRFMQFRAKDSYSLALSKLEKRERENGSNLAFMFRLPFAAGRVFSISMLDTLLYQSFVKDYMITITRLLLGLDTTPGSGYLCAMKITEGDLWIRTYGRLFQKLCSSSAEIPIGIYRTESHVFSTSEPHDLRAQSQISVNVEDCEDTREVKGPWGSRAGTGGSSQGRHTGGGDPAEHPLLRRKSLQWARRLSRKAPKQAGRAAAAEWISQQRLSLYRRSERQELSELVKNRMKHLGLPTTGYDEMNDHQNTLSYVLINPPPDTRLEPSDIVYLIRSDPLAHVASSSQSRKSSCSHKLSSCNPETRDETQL
Readout Kind: IC50 / EC50

Known results for molecules:
{"columns": ["Molecule", "Target", "IC50 / EC50"],
 "data": [
  ["CCOc1ccccc1S(=O)(=O)N1CC(c2nc(-c3ccc(F)s3)no2)C1 [Compound 60]", "UniProt:Q5JUK3", "4.8 µM"],
  ["CCOc1ccccc1S(=O)(=O)N1CC(c2nc(-c3ccc(F)cc3)cn2C)C1 [Compound 100]", "UniProt:Q5JUK3", ">10 µM"],
  ["CCOc1ccccc1S(=O)(=O)N1CC[C@@H](c2nc(-c3ccc(F)cc3)no2)C1 [Compound 74]", "UniProt:Q5JUK3", ">10 µM"],
  ["CCOc1ccccc1S(=O)(=O)N1CC(F)(c2nc(-c3ccc(F)cc3)no2)C1 [Compound 70]", "UniProt:Q5JUK3", "9.2 µM"]
]}

INPUT: Please report the recorded IC50 / EC50 for O=S(=O)(c1cccc(Cl)c1)N1CC(c2nc(-c3ccsc3)no2)C1 [Compound 15] .
OUTPUT: Inactive

INPUT: Given the entry CCOc1ccccc1S(=O)(=O)[C@H]1C[C@@H](c2nc(-c3ccc(F)cc3)no2)C1 [Compound 73a] , report its measured IC50 / EC50.
OUTPUT: Inactive

INPUT: Which value of IC50 / EC50 has been reported for CCOc1ccccc1S(=O)(=O)N1CC(c2nc(-c3nccs3)no2)C1 [Compound 61] in the records?
OUTPUT: Inactive

INPUT: # query: IC50 / EC50 of entry O=S(=O)(c1cccc2cccnc12)N1CC(c2nc(-c3ccc(F)cc3)no2)C1 [Compound 121]
OUTPUT: 7.4 µM

INPUT: I would be grateful if you could share the reported IC50 / EC50 for CCOc1ccccc1S(=O)(=O)N1CC(c2nc(-c3cccc(C(F)(F)F)c3)no2)C1 [Compound 48] .
OUTPUT: 11 µM

INPUT: What value of IC50 / EC50 has been recorded for this entry: CCCc1ccccc1S(=O)(=O)N1CC(c2nc(-c3ccsc3)no2)C1 [Compound 30]
OUTPUT: >10 µM

INPUT: IC50 / EC50 lookup needed for CCOc1ccccc1S(=O)(=O)N1CC(c2nc(-c3ccccc3Cl)no2)C1 [Compound 44] , thanks.
OUTPUT: 8.0 µM

INPUT: Reported IC50 / EC50 for O=S(=O)(c1ccccc1N1CCCCC1)N1CC(c2nc(-c3ccc(F)cc3)no2)C1 [Compound 118] : what is it?
OUTPUT: >10 µM

INPUT: Would you kindly share the measured IC50 / EC50 for CCOc1ccccc1S(=O)(=O)N1CC(c2nc(-c3ccccn3)no2)C1 [Compound 64] ?
OUTPUT: Inactive

INPUT: Could you tell me which IC50 / EC50 is on file for CCOc1ccccc1S(=O)(=O)N1CC(c2nc(-c3ccco3)no2)C1 [Compound 63] ?
OUTPUT: >10 µM
